Exercise: for every item that follows, state its recorded normalized growth.
# test_name: chemical genetic growth profiling, strain panel (AID 1159580);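 further: tested at 20 µM; growth read once vehicle control cultures reached saturation at 30 °C; 1 = growth at the plate median or of vehicle wells; lower values mean less growth of the strain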
# condition_label: S. cerevisiae deletion strains, growth OD, locus YNL071W, strain lat1, active compounds read low
The whole screen tested about 5,500 compounds, of which about 2,000 (36%) were called active. Another 18% or so got no clear call; they are omitted. This is one part of the list.
One number for each entry.

Observe how each entry below is paired with its result.
molecule=O=C(O)c1cc(=O)c2c(OCC(O)COc3cccc4oc(C(=O)O)cc(=O)c34)cccc2o1 quantitative_result=0.989
molecule=CS(=O)(=O)OCCCCOS(C)(=O)=O quantitative_result=1.01
molecule="CCC(COC(=O)c1cc(OC)c(OC)c(OC)c1)(c1ccccc1)N(C)C (stereo unspecified)" quantitative_result=0.921
molecule=COS(C)(=O)=O quantitative_result=1
molecule=O=c1cccc2n1C[C@H]1CNCC2C1 quantitative_result=1.01

Shifting focus to the molecule that follows.
Ask | Quick check: normalized growth of CC(=O)OCC(=O)[C@@]12OC(C)(C)O[C@@H]1CC1C3C[C@H](F)C4=CC(=O)C=C[C@]4(C)[C@@]3(F)[C@@H](O)C[C@@]12C (stereo partly specified) ?
Reply | 1.03

---

# test_name: chemical genetic growth profiling, strain panel (AID 1159580)
# condition_label: S. cerevisiae deletion strains, growth OD, locus YDL192W, strain arf1
Hit rate of the full screen: of about 5,500 compounds, about 2,000 (36%) were called active. About 18% were inconclusive and are not listed. No stated cut-off is given here; in the data, active means normalized growth mostly below about 0.91 (no sharp cut-off); inconclusive means no clear call, values can overlap the other calls; inactive means mostly above about 0.92. Some of the results follow.
// one of true (active), false (inactive), no free text

Use the examples below as a reference point.
compound=CCn1cc(C(=O)O)c(=O)c2cc3c(cc21)OCO3 group=false
compound=c1cc2c(cc1[C@H]1OC[C@H]3[C@@H]1CO[C@H]3c1ccc3c(c1)OCO3)OCO2 group=true
compound=CCOC(=O)c1ccc(N)cc1 group=false
compound=O=C(O)CCC(=O)c1ccc(-c2ccccc2)cc1 group=false
compound=CCn1cc(C(=O)O)c(=O)c2cnc(N3CCNCC3)nc21 group=false

Continue with the next compound.
Ask | Please indicate how the test categorized S=c1[nH]c2ccccc2s1 .
Reply | false

---

# test_name: chemical genetic growth profiling, strain panel (AID 1159580);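 further: tested at 20 µM; growth read once vehicle control cultures reached saturation at 30 °C; 1 = growth at the plate median or of vehicle wells; lower values mean less growth of the strain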
# condition_label: S. cerevisiae deletion strains, growth OD, locus YPL078C, strain atp4, active compounds read low
In all, about 5,500 compounds went through this assay and about 2,000 (36%) were called active. Inconclusive results (about 18%) are left out. This is one part of the list.
# met = normalized growth below 1 (exclusive); not met = normalized growth at/above 1

Use the examples below as a reference point.
compound="COc1ccccc1OCC(O)CN1CCN(CC(=O)Nc2c(C)cccc2C)CC1 (stereo not drawn)" group="not met"
compound="CC[C@@]1(C2O[C@@H](C3O[C@@](O)(CC)[C@H](C)C[C@@H]3C)C[C@@H]2C)CC[C@H]([C@]2(C)CCC3(C[C@H](O)[C@@H](C)[C@@H]([C@H](C)[C@@H](OC)[C@H](C)C(=O)O)O3)O2)O1 (stereo partly drawn)" group="not met"

Ask | Is 1 strictly greater than the compound's reported normalized growth? compound: CCCCC(CC)CN=C(N)NC(N)=NCCCCCCN=C(N)NC(N)=NCC(CC)CCCC (stereo not drawn)
Reply | met

Ask | Is 1 strictly greater than the compound's reported normalized growth? compound: CC[C@]1(O)CC2CN(CCc3c([nH]c4ccccc34)[C@@](C(=O)OC)(c3cc4c(cc3OC)N(C=O)[C@H]3[C@@](O)(C(=O)OC)[C@H](OC(C)=O)[C@]5(CC)C=CCN6CC[C@]43[C@@H]65)C2)C1 (stereo partly drawn)
Reply | not met

---

Exercise: for every item that follows, state its recorded normalized growth.
# test_name: chemical genetic growth profiling, strain panel (AID 1159580);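 further: tested at 20 µM; growth read once vehicle control cultures reached saturation at 30 °C; 1 = growth at the plate median or of vehicle wells; lower values mean less growth of the strain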
# condition_label: S. cerevisiae deletion strains, growth OD, locus YER167W, strain BCK2, active compounds read low
The whole screen tested about 5,500 compounds, of which about 2,000 (36%) were called active. Not shown: some 18% with an inconclusive outcome. This is one part of the list.
Answers are plain numbers.

Observe how each entry below is paired with its result.
molecule=OC/C=C/c1ccc(O)c(O)c1 measurement_kind="normalized growth" quantitative_result=0.978
molecule=O=C(/C=C/c1ccc(O)c(O)c1)O[C@@H]1C[C@](O)(C(=O)O)C[C@@H](O)[C@H]1O measurement_kind="normalized growth" quantitative_result=1.01
molecule=NCCCCN=C(N)N measurement_kind="normalized growth" quantitative_result=0.999
molecule="CN(C)CCCO[C@H]1[C@@H](C(O)CO)OC2OC(C)(C)O[C@@H]21 (stereo partly specified)" measurement_kind="normalized growth" quantitative_result=0.915
molecule=Oc1ccc(/C=C/c2cc(O)cc(O)c2)cc1 measurement_kind="normalized growth" quantitative_result=1.01

Shifting focus to the molecule that follows.
Ask | Quick check: normalized growth of O=C(O)CCC(=O)c1ccc(-c2ccccc2)cc1 ?
Reply | 0.987

---

# test_name: chemical genetic growth profiling, strain panel (AID 1159580);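 further: tested at 20 µM; growth read once vehicle control cultures reached saturation at 30 °C; 1 = growth at the plate median or of vehicle wells; lower values mean less growth of the strain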
# condition_label: S. cerevisiae deletion strains, growth OD, locus YLR330W, strain CHS5, active compounds read low
Hit rate of the full screen: of about 5,500 compounds, about 2,000 (36%) were called active. Roughly 18% stayed inconclusive and do not appear here. Some of the results follow.
measurement_kind: normalized growth

compound=C=CC1=C(C)/C(=C/c2[nH]c(Cc3[nH]c(/C=C4\NC(=O)C(C)=C4C=C)c(C)c3CCC(=O)O)c(CCC(=O)O)c2C)NC1=O result="1.01 (inactive)"
compound=CCCSP(=O)(OCC)SCCC result="1.02 (inactive)"
compound=CCn1cc(C(=O)O)c(=O)c2cnc(N3CCNCC3)nc21 result="0.981 (inactive)"
compound="C[C@@H]1CC2C3CCC4=CC(=O)C=C[C@]4(C)[C@@]3(F)[C@@H](O)C[C@]2(C)[C@@]1(O)C(=O)COP(=O)(O)O (stereo partly specified)" result="1.01 (inactive)"
compound=CO[C@@H]1[C@@H](O[C@@H]2O[C@H](C)[C@@H](O[C@H]3C[C@@](C)(O)[C@H](O)[C@H](C)O3)[C@H](N(C)C)[C@H]2O)[C@@H](CC=O)C[C@@H](C)[C@@H](O[C@H]2CC[C@H](N(C)C)[C@@H](C)O2)/C=C/C=C/C[C@H](C)OC(=O)C[C@H]1O result="1.01 (inactive)"

For every listed record, write down its normalized growth.
1. C[C@@]12C(=O)OC(=O)[C@]1(C)C1CCC2O1
2. CC1=C(/C=C/C(C)=C/C=C/C(C)=C/C=C/C=C(C)/C=C/C=C(C)/C=C/C2=C(C)CCCC2(C)C)C(C)(C)CCC1
3. COC(=O)[C@H]1[C@H]2C[C@@H]3c4[nH]c5cc(OC)ccc5c4CCN3C[C@H]2C[C@@H](OC(=O)c2cc(OC)c(OC)c(OC)c2)[C@@H]1OC
4. CC(=O)OC/C=C(C)/C=C/C=C(C)/C=C/C1=C(C)CCCC1(C)C
5. O=C1N=C(O)CN1/N=C\c1ccc(-c2ccc([N+](=O)[O-])cc2)o1

Reply |
1. 0.923 (inactive)
2. 1.01 (inactive)
3. 1 (inactive)
4. 1.02 (inactive)
5. 1.02 (inactive)

For every listed record, write down its normalized growth.
1. CN(Cc1cnc2nc(N)nc(N)c2n1)c1ccc(C(=O)NC(CCC(=O)O)C(=O)O)cc1 (stereo unspecified)
2. CCn1cc(C(=O)O)c(=O)c2cc3c(cc21)OCO3
3. C=CCN1CC[C@]23c4c5ccc(O)c4OC2C(=O)CC[C@@]3(O)[C@H]1C5 (stereo partly specified)
4. OC/C=C/c1ccc(O)c(O)c1

Reply |
["0.973 (inactive)", "1.01 (inactive)", "1.01 (inactive)", "0.934 (inactive)"]

For every listed record, write down its normalized growth.
1. Nc1nccs1
2. CC1=CC(=O)CC(C)(C)C1(O)/C=C/C(C)=C\C(=O)O (stereo unspecified)
3. CCOP(=S)(OCC)Oc1ccc2c(C)c(Cl)c(=O)oc2c1
4. c1cc2c(cc1[C@H]1OC[C@H]3[C@@H]1CO[C@H]3c1ccc3c(c1)OCO3)OCO2

Reply |
0.993 (inactive)
0.992 (inactive)
0.979 (inactive)
0.816 (active)

For every listed record, write down its normalized growth.
1. O=C(/C=C/c1ccc(O)c(O)c1)O[C@@H]1C[C@](O)(C(=O)O)C[C@@H](O)[C@H]1O
2. CC(=O)OCC(=O)[C@@]12OC(C)(C)O[C@@H]1CC1C3C[C@H](F)C4=CC(=O)C=C[C@]4(C)[C@@]3(F)[C@@H](O)C[C@@]12C (stereo partly specified)
3. O=C1CN(/N=C\c2ccc([N+](=O)[O-])o2)C(=O)N1

Reply |
1. 1.01 (inactive)
2. 1.01 (inactive)
3. 1 (inactive)

For every listed record, write down its normalized growth.
1. CO[C@@H]1C[C@@H](C[C@H]2CC[C@H](C)[C@H]([C@@H](C)C(=O)O)O2)O[C@]2(O[C@](C)([C@H]3CC[C@@](C)(C4O[C@@H](C5O[C@@](O)(CO)[C@H](C)C[C@@H]5C)C[C@@H]4C)O3)C[C@H]2C)[C@@H]1C (stereo partly specified)
2. COc1cc(C)c2c(c1C=O)Oc1c(c(C)c(O)c3c1C(O)OC3=O)OC2=O (stereo unspecified)
3. NC(=O)N/N=C\c1ccc([N+](=O)[O-])o1
4. Nc1nc2ncc(CNc3ccc(C(=O)N[C@@H](CCC(=O)O)C(=O)O)cc3)nc2c(=O)[nH]1

Reply |
["1.04 (inactive)", "0.983 (inactive)", "0.998 (inactive)", "0.979 (inactive)"]

For every listed record, write down its normalized growth.
1. CC[C@]12CCCN3CCc4c(n(c5ccccc45)[C@](O)(C(=O)OC)C1)[C@@H]32
2. CS(=O)(=O)OCCCCOS(C)(=O)=O
3. CCn1cc(C(=O)O)c(=O)c2cnc(N3CCCC3)nc21
4. C[C@](N)(Cc1ccc(O)c(O)c1)C(=O)O
5. CC(Cc1ccc(O)c(O)c1)(NN)C(=O)O (stereo unspecified)
6. O=C(O)CNCP(=O)(O)O
7. CN=C1CN(O)C(c2ccccc2)=c2cc(Cl)ccc2=N1
8. Oc1ccc(/C=C/c2cc(O)cc(O)c2)cc1

Reply |
["0.988 (inactive)", "0.957 (inactive)", "1.01 (inactive)", "0.982 (inactive)", "1 (inactive)", "1.01 (inactive)", "0.998 (inactive)", "0.998 (inactive)"]

For every listed record, write down its normalized growth.
1. NC(=O)c1cc[n+](CC2=C(C(=O)O)N3C(=O)C(NC(=O)C(c4ccccc4)S(=O)(=O)[O-])C3SC2)cc1 (stereo unspecified)
2. CCOC(N)=O
3. O=C(O)c1cc(=O)c2c(OCC(O)COc3cccc4oc(C(=O)O)cc(=O)c34)cccc2o1
4. CC[C@@H]1[C@@H](O)N2C3C[C@H]1C1C(O)[C@]4(C[C@@H]12)c1ccccc1N(C)[C@@H]34 (stereo partly specified)
5. CC12CCC(CC1)C(C)(C)O2
6. CCOC(=O)C1=C[C@]2(CC)CCCN3CCc4c(n1c1ccccc41)[C@@H]32
7. Nc1ccc(S(=O)(=O)Nc2nccs2)cc1

Reply |
["0.982 (inactive)", "1.01 (inactive)", "1.01 (inactive)", "0.994 (inactive)", "1.01 (inactive)", "0.992 (inactive)", "1.01 (inactive)"]

Ask | Quick check: normalized growth of C=CCc1cc(OC)c2c(c1OC)OCO2 ?
Reply | 0.967 (inactive)
